- RUN_DESCRIPTION: Drug excretion in nonobese adult human urine assessed as unchanged drug at 4 mg/kg, iv administered as single dose 30 mins infusion
- Format: ADME, organism-based
- Set-up: dose 4 mg/kg, route intravenous
- TEST_PARAMETERS: read-out: Drug uptake
ASSAY_ENDPOINT: dose excreted at 0.5 h (%)
Numbers only, in %.

Query: I am curious: what dose excreted at 0.5 h value has been reported for "CCCCCCCCCC(=O)N[C@@H](Cc1c[nH]c2ccccc12)C(=O)N[C@H](CC(N)=O)C(=O)N[C@@H](CC(=O)O)C(=O)N[C@@H]1C(=O)NCC(=O)N[C@@H](CCCN)C(=O)N[C@@H](CC(=O)O)C(=O)N[C@H](C)C(=O)N[C@@H](CC(=O)O)C(=O)NCC(=O)N[C@H](CO)C(=O)N[C@@H]([C@H](C)CC(=O)O)C(=O)N[C@@H](CC(=O)c2ccccc2N)C(=O)O[C@@H]1C" ?
Response: 52.3

----------
- RUN_DESCRIPTION: Renal clearance in adult human subjects at 6 mg/kg, iv administered as single dose 30 mins infusion
- Format: ADME, organism-based, Kidney
- Design: dose 6 mg/kg, route intravenous
- TEST_PARAMETERS: in vivo, read-out: CL_renal (converted)
ASSAY_ENDPOINT: CL renal at 0.5 h (mL/h/kg)
One number for each entry, in mL/h/kg.

Query: Look up CL renal at 0.5 h for this molecule: "CCCCCCCCCC(=O)N[C@@H](Cc1c[nH]c2ccccc12)C(=O)N[C@H](CC(N)=O)C(=O)N[C@@H](CC(=O)O)C(=O)N[C@@H]1C(=O)NCC(=O)N[C@@H](CCCN)C(=O)N[C@@H](CC(=O)O)C(=O)N[C@H](C)C(=O)N[C@@H](CC(=O)O)C(=O)NCC(=O)N[C@H](CO)C(=O)N[C@@H]([C@H](C)CC(=O)O)C(=O)N[C@@H](CC(=O)c2ccccc2N)C(=O)O[C@@H]1C"
Response: 2.72

----------
- RUN_DESCRIPTION: Cmax in nonobese adult human at 4 mg/kg, iv administered as single dose 30 mins infusion
- Format: ADME, organism-based
- Set-up: dose 4 mg/kg, route intravenous
- TEST_PARAMETERS: in vivo
ASSAY_ENDPOINT: Cmax (ng/mL)
One number for each entry, in ng/mL.

Query: So what's the measured Cmax for this one? "CCCCCCCCCC(=O)N[C@@H](Cc1c[nH]c2ccccc12)C(=O)N[C@H](CC(N)=O)C(=O)N[C@@H](CC(=O)O)C(=O)N[C@@H]1C(=O)NCC(=O)N[C@@H](CCCN)C(=O)N[C@@H](CC(=O)O)C(=O)N[C@H](C)C(=O)N[C@@H](CC(=O)O)C(=O)NCC(=O)N[C@H](CO)C(=O)N[C@@H]([C@H](C)CC(=O)O)C(=O)N[C@@H](CC(=O)c2ccccc2N)C(=O)O[C@@H]1C"
Response: 46300

----------
- RUN_DESCRIPTION: Clearance in healthy human at 8 mg/kg, iv administered as 30 mins infusion every 24 hrs measured on day 7
- Type: ADME, organism-based
- Design: dose 8 mg/kg, route intravenous
- TEST_PARAMETERS: in vivo
ASSAY_ENDPOINT: clearance
// unit must come after the numeric part

Query: For the molecule shown here, "CCCCCCCCCC(=O)N[C@@H](Cc1c[nH]c2ccccc12)C(=O)N[C@H](CC(N)=O)C(=O)N[C@@H](CC(=O)O)C(=O)N[C@@H]1C(=O)NCC(=O)N[C@@H](CCCN)C(=O)N[C@@H](CC(=O)O)C(=O)N[C@H](C)C(=O)N[C@@H](CC(=O)O)C(=O)NCC(=O)N[C@H](CO)C(=O)N[C@@H]([C@H](C)CC(=O)O)C(=O)N[C@@H](CC(=O)c2ccccc2N)C(=O)O[C@@H]1C" , give the reported clearance.
Response: 0.118 mL/min/kg
